Data credit: paper PMC11859184

Assay: Ex vivo biodistribution of 68Ga-labeled tracers in PC-3 tumor-bearing mice
Details: mouse, liver, intravenous, 100 ug; 1 h pi, blocked (100 µg blocking agent co-injected); read-out: Liver uptake
Description: PET/CT imaging and biodistribution studies were conducted using male NOD.Cg-Rag1^tm1Mom Il2rg^tm1Wjl/SzJ (NRG) mice following previously published procedures. […] For ex vivo biodistribution studies, the mice were injected with the ^68Ga-labeled tracer (2–4 MBq) via a lateral caudal tail vein. […] Blood and organs/tissues of interest were collected, weighed, and counted using a gamma counter.
tissue uptake at 1 h values, listed per item
measurementKind: tissue uptake at 1 h (%ID/g)

• CC(C)C[C@H](NC(=O)[C@H](Cc1cnc[nH]1)N(C)C(=O)CNC(=O)[C@@H](NC(=O)[C@H](C)NC(=O)[C@H](Cc1c[nH]c2ccccc12)NC(=O)[C@H](CCC(N)=O)NC(=O)[C@@H](Cc1ccccc1)NC(=O)CN1CCC(NC(=O)CN2CCN(CC(=O)O)CCN(CC(=O)O)CCN(CC(=O)O)CC2)CC1)C(C)(C)C)C(=O)N1CC(F)(F)C[C@H]1C(N)=O [[^68Ga]Ga-LW02060, metal not drawn] = 1.11
• CC(C)C[C@@H](CN1CC(F)(F)C[C@H]1C(N)=O)NC(=O)[C@H](Cc1c[nH]cn1)NC(=O)CN(C)C(=O)[C@@H](NC(=O)[C@H](C)NC(=O)[C@H](Cc1c[nH]c2ccccc12)NC(=O)[C@H](CCC(N)=O)NC(=O)[C@@H](Cc1ccccc1)NC(=O)CN1CCC(NC(=O)CN2CCN(CC(=O)O)CCN(CC(=O)O)CCN(CC(=O)O)CC2)CC1)C(C)C [[^68Ga]Ga-LW02080, metal not drawn] = 1.05

----------
Experiment: Ex vivo biodistribution of 68Ga-labeled tracers in PC-3 tumor-bearing mice
Conditions: mouse, heart, intravenous; 1 h pi, n = 4; read-out: Heart uptake
measurementKind: tissue uptake at 1 h

- CC(C)C[C@@H](CN1CC(F)(F)C[C@H]1C(N)=O)NC(=O)[C@H](Cc1c[nH]cn1)NC(=O)CN(C)C(=O)[C@@H](NC(=O)[C@H](C)NC(=O)[C@H](Cc1c[nH]c2ccccc12)NC(=O)[C@H](CCC(N)=O)NC(=O)[C@@H](Cc1ccccc1)NC(=O)CN1CCC(NC(=O)CN2CCN(CC(=O)O)CCN(CC(=O)O)CCN(CC(=O)O)CC2)CC1)C(C)C [[^68Ga]Ga-LW02080, metal not drawn]: 0.11 %ID/g
- CC(C)C[C@H](NC(=O)[C@H](Cc1cnc[nH]1)N(C)C(=O)CNC(=O)[C@@H](NC(=O)[C@H](C)NC(=O)[C@H](Cc1c[nH]c2ccccc12)NC(=O)[C@H](CCC(N)=O)NC(=O)[C@@H](Cc1ccccc1)NC(=O)CN1CCC(NC(=O)CN2CCN(CC(=O)O)CCN(CC(=O)O)CCN(CC(=O)O)CC2)CC1)C(C)(C)C)C(=O)N1CC(F)(F)C[C@H]1C(N)=O [[^68Ga]Ga-LW02060, metal not drawn]: 0.2 %ID/g

----------
Experiment: Ex vivo biodistribution of 177Lu-labeled ligands in PC-3 tumor-bearing mice
Details: mouse, liver, intravenous, 24 h pi, n = 5; read-out: Liver uptake
measurementKind: tissue uptake at 24 h (%ID/g)

- CC(C)C[C@H](NC(=O)[C@H](Cc1cnc[nH]1)N(C)C(=O)CNC(=O)[C@@H](NC(=O)[C@H](C)NC(=O)[C@H](Cc1c[nH]c2ccccc12)NC(=O)[C@H](CCC(N)=O)NC(=O)[C@@H](Cc1ccccc1)NC(=O)CN1CCC(NC(=O)CN2CCN(CC(=O)O)CCN(CC(=O)O)CCN(CC(=O)O)CC2)CC1)C(C)(C)C)C(=O)N1CC(F)(F)C[C@H]1C(N)=O [[^177Lu]Lu-LW02060, metal not drawn]: 0.14
- CC(C)C[C@@H](CN1CC(F)(F)C[C@H]1C(N)=O)NC(=O)[C@H](Cc1c[nH]cn1)NC(=O)CN(C)C(=O)[C@@H](NC(=O)[C@H](C)NC(=O)[C@H](Cc1c[nH]c2ccccc12)NC(=O)[C@H](CCC(N)=O)NC(=O)[C@@H](Cc1ccccc1)NC(=O)CN1CCC(NC(=O)CN2CCN(CC(=O)O)CCN(CC(=O)O)CCN(CC(=O)O)CC2)CC1)C(C)C [[^177Lu]Lu-LW02080, metal not drawn]: 0.09

----------
Test: Ex vivo biodistribution of 177Lu-labeled ligands in PC-3 tumor-bearing mice
Details: male, NOD.Cg-Rag1^tm1Mom Il2rg^tm1Wjl/SzJ (NRG), mouse, tumor/pancreas, iv, total radioactivity, 120 h pi, n = 5; read-out: Tumor/pancreas uptake ratio
tissue to tissue ratio at 120 h values, listed per item
measurementKind: tissue to tissue ratio at 120 h

• CC(C)C[C@@H](CN1CC(F)(F)C[C@H]1C(N)=O)NC(=O)[C@H](Cc1c[nH]cn1)NC(=O)CN(C)C(=O)[C@@H](NC(=O)[C@H](C)NC(=O)[C@H](Cc1c[nH]c2ccccc12)NC(=O)[C@H](CCC(N)=O)NC(=O)[C@@H](Cc1ccccc1)NC(=O)CN1CCC(NC(=O)CN2CCN(CC(=O)O)CCN(CC(=O)O)CCN(CC(=O)O)CC2)CC1)C(C)C [[^177Lu]Lu-LW02080, metal not drawn] = 51.5
• CC(C)C[C@H](NC(=O)[C@H](Cc1cnc[nH]1)N(C)C(=O)CNC(=O)[C@@H](NC(=O)[C@H](C)NC(=O)[C@H](Cc1c[nH]c2ccccc12)NC(=O)[C@H](CCC(N)=O)NC(=O)[C@@H](Cc1ccccc1)NC(=O)CN1CCC(NC(=O)CN2CCN(CC(=O)O)CCN(CC(=O)O)CCN(CC(=O)O)CC2)CC1)C(C)(C)C)C(=O)N1CC(F)(F)C[C@H]1C(N)=O [[^177Lu]Lu-LW02060, metal not drawn] = 17.1

----------
Assay: Ex vivo biodistribution of 68Ga-labeled tracers in PC-3 tumor-bearing mice
Details: mouse, lungs, intravenous; 1 h pi, n = 4; read-out: Lungs uptake
measurementKind: tissue uptake at 1 h

- CC(C)C[C@H](NC(=O)[C@H](Cc1cnc[nH]1)N(C)C(=O)CNC(=O)[C@@H](NC(=O)[C@H](C)NC(=O)[C@H](Cc1c[nH]c2ccccc12)NC(=O)[C@H](CCC(N)=O)NC(=O)[C@@H](Cc1ccccc1)NC(=O)CN1CCC(NC(=O)CN2CCN(CC(=O)O)CCN(CC(=O)O)CCN(CC(=O)O)CC2)CC1)C(C)(C)C)C(=O)N1CC(F)(F)C[C@H]1C(N)=O [[^68Ga]Ga-LW02060, metal not drawn]: 0.61 %ID/g
- CC(C)C[C@@H](CN1CC(F)(F)C[C@H]1C(N)=O)NC(=O)[C@H](Cc1c[nH]cn1)NC(=O)CN(C)C(=O)[C@@H](NC(=O)[C@H](C)NC(=O)[C@H](Cc1c[nH]c2ccccc12)NC(=O)[C@H](CCC(N)=O)NC(=O)[C@@H](Cc1ccccc1)NC(=O)CN1CCC(NC(=O)CN2CCN(CC(=O)O)CCN(CC(=O)O)CCN(CC(=O)O)CC2)CC1)C(C)C [[^68Ga]Ga-LW02080, metal not drawn]: 0.28 %ID/g

----------
tissue uptake at 1 h values, listed per item
Assay: Ex vivo biodistribution of 177Lu-labeled ligands in PC-3 tumor-bearing mice
Conditions: mouse, PC-3 tumor, intravenous, 1 h pi, n = 5; read-out: PC-3 tumor uptake
measurementKind: tissue uptake at 1 h (%ID/g)

• CC(C)C[C@H](NC(=O)[C@H](Cc1cnc[nH]1)N(C)C(=O)CNC(=O)[C@@H](NC(=O)[C@H](C)NC(=O)[C@H](Cc1c[nH]c2ccccc12)NC(=O)[C@H](CCC(N)=O)NC(=O)[C@@H](Cc1ccccc1)NC(=O)CN1CCC(NC(=O)CN2CCN(CC(=O)O)CCN(CC(=O)O)CCN(CC(=O)O)CC2)CC1)C(C)(C)C)C(=O)N1CC(F)(F)C[C@H]1C(N)=O [[^177Lu]Lu-LW02060, metal not drawn] = 9.59
• CC(C)C[C@@H](CN1CC(F)(F)C[C@H]1C(N)=O)NC(=O)[C@H](Cc1c[nH]cn1)NC(=O)CN(C)C(=O)[C@@H](NC(=O)[C@H](C)NC(=O)[C@H](Cc1c[nH]c2ccccc12)NC(=O)[C@H](CCC(N)=O)NC(=O)[C@@H](Cc1ccccc1)NC(=O)CN1CCC(NC(=O)CN2CCN(CC(=O)O)CCN(CC(=O)O)CCN(CC(=O)O)CC2)CC1)C(C)C [[^177Lu]Lu-LW02080, metal not drawn] = 5.67

----------
tissue uptake at 1 h values, listed per item
Test: Ex vivo biodistribution of 177Lu-labeled ligands in PC-3 tumor-bearing mice
Conditions: mouse, large intestine, intravenous, 100 ug, 1 h pi, blocked (100 µg GRPR antagonist co-injected); read-out: Large intestine uptake
measurementKind: tissue uptake at 1 h (%ID/g)

- CC(C)C[C@@H](CN1CC(F)(F)C[C@H]1C(N)=O)NC(=O)[C@H](Cc1c[nH]cn1)NC(=O)CN(C)C(=O)[C@@H](NC(=O)[C@H](C)NC(=O)[C@H](Cc1c[nH]c2ccccc12)NC(=O)[C@H](CCC(N)=O)NC(=O)[C@@H](Cc1ccccc1)NC(=O)CN1CCC(NC(=O)CN2CCN(CC(=O)O)CCN(CC(=O)O)CCN(CC(=O)O)CC2)CC1)C(C)C [[^177Lu]Lu-LW02080, metal not drawn]: 0.21
- CC(C)C[C@H](NC(=O)[C@H](Cc1cnc[nH]1)N(C)C(=O)CNC(=O)[C@@H](NC(=O)[C@H](C)NC(=O)[C@H](Cc1c[nH]c2ccccc12)NC(=O)[C@H](CCC(N)=O)NC(=O)[C@@H](Cc1ccccc1)NC(=O)CN1CCC(NC(=O)CN2CCN(CC(=O)O)CCN(CC(=O)O)CCN(CC(=O)O)CC2)CC1)C(C)(C)C)C(=O)N1CC(F)(F)C[C@H]1C(N)=O [[^177Lu]Lu-LW02060, metal not drawn]: 0.22
